Target: GRID2IP_2, A4D2P6
Sequence (A4D2P6 272-370): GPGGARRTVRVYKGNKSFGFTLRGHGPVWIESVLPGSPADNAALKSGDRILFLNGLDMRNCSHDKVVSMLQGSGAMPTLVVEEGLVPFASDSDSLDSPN
Experiment: holdup assay
Set-up: key: below the threshold = too weak to quantify, mostly under pKd 3.1 to 4
Settings: plain residues with an end cap or a label only (N-terminal biotin on a linker: ado-ado)
reported-property: pKd

binder	reported-property	result
LGRSTPQSEV [DGKH, Q86XP1]	pKd	4.16
RRLPGKETMA [GRIK2, Q13002]	pKd	below the threshold
RKPKPSSSCC [RAB9A, P51151]	pKd	3.54
KKAPTNEFYA [SDC4, P31431]	pKd	below the threshold
SNAGNTATKA [NOSTRIN, Q8IVI9]	pKd	below the threshold
VNKSKLLTDV [KCNA1, Q09470]	pKd	3.71
FNSYSLTGYV [CLDN2, P57739]	pKd	3.68
KSGKQTMLVV [TRIM29, Q14134;Q14134-2]	pKd	below the threshold
